# System: Mus musculus
# MEASUREMENT_PROTOCOL: Anticonvulsant activity in ip dosed CFLP mouse assessed as inhibition of pentylenetetrazole-induced seizure
# Type: functional
MEASURED_QUANTITY: ED50

Below are worked cases with known answers.
>>> observed_measurement("Br.Cc1c(Cl)cccc1-n1c(CSC2=NCCN2)nc2ccccc2c1=O")
"25 mg/kg"
>>> observed_measurement("Br.Cc1ccc([N+](=O)[O-])cc1-n1c(CSC2=NCCN2)nc2ccccc2c1=O")
"150 mg/kg"
>>> observed_measurement("Br.N=C(N)SCc1nc2ccccc2c(=O)n1-c1ccccc1F")
"75 mg/kg"
>>> observed_measurement("Br.N=C(N)SCc1nc2ccccc2c(=O)n1-c1ccccc1")
"> 50 mg/kg"
>>> observed_measurement("Cc1ccccc1-n1c(C)nc2ccccc2c1=O")
"14 mg/kg"

Need ED50 for each of these compounds.
1. Cc1ccccc1-n1c(C(F)(F)F)nc2ccccc2c1=O
2. CC(=O)OCc1nc2ccccc2c(=O)n1-c1ccccc1C
3. Br.O=c1c2ccccc2nc(CSC2=NCCN2)n1-c1ccccc1Cl
4. Br.O=c1c2ccccc2nc(CSC2=NCCN2)n1-c1ccc(Cl)cc1
5. Cc1ccccc1-n1c(COC(=O)CCC(=O)O)nc2ccccc2c1=O
6. Cc1ccccc1-n1c(CF)nc2ccccc2c1=O.Cl

> 200 mg/kg
150 mg/kg
25 mg/kg
37.5 mg/kg
150 mg/kg
16 mg/kg

----------
Provide the reported ED50 of each item.
# Tested on: Mus musculus
# MEASUREMENT_PROTOCOL: Anticonvulsant activity in ip dosed CFLP mouse assessed as inhibition of pentylenetetrazole-induced seizure
# Type: functional
Give bare numbers, in mg/kg.

Below are worked cases with known answers.
>>> observed_measurement("Br.C/N=C(/NC)SCc1nc2ccccc2c(=O)n1-c1ccccc1Cl")
40
>>> observed_measurement("Cc1ccccc1-n1c(CSS(=O)(=O)O)nc2ccccc2c1=O")
39
>>> observed_measurement("Br.C/N=C(\\NC)SCc1nc2ccccc2c(=O)n1-c1ccccc1C")
23
>>> observed_measurement("COCc1nc2ccccc2c(=O)n1-c1ccccc1C")
100
>>> observed_measurement("CCCSCc1nc2ccccc2c(=O)n1-c1ccccc1C")
70

# evaluate next
Input "Cc1ccccc1-n1c(CO)nc2ccccc2c1=O" , output reported ED50.
70

----------
# Tested on: Mus musculus
# MEASUREMENT_PROTOCOL: Anticonvulsant activity in ip dosed CFLP mouse assessed as inhibition of pentylenetetrazole-induced seizure
# Format: functional
MEASURED_QUANTITY: ED50 (mg/kg)
Give bare numbers, in mg/kg.

Below are worked cases with known answers.
>>> observed_measurement("Br.O=c1c2ccccc2nc(CSC2=NCCN2)n1-c1ccccc1F")
100
>>> observed_measurement("CCCOCc1nc2ccccc2c(=O)n1-c1ccccc1C")
150
>>> observed_measurement("Cc1ccccc1-n1c(CSC(N)=O)nc2ccccc2c1=O")
56
>>> observed_measurement("Br.C/N=C(\\NC)SCc1nc2ccccc2c(=O)n1-c1ccccc1")
50
>>> observed_measurement("Br.Cc1ccccc1-n1c(CSC(=N)N)nc2ccccc2c1=O")
28
>>> observed_measurement("Br.Cc1ccccc1-n1c(CSC2=NCCN2)nc2ccccc2c1=O")
24
>>> observed_measurement("Br.Cc1ccccc1-n1c(CS/C(N)=N/N)nc2ccccc2c1=O")
23

Answer with ED50 of "Cc1ccccc1-n1c(C(F)F)nc2ccccc2c1=O" measured for Mus musculus.
50
